test: Pharmacokinetics of intraperitoneal or intravenous injection in CD1 mice; type: in vivo; conditions: male, CD1, mouse, plasma, iv, 1 mg/kg; read-out: T ½ (h) IV (converted)
observationType: half-life (h)

Solved entries (count: 2):
INSERT INTO measurements (compound, observationtype, resultvalue) VALUES
  ('Cc1ncsc1-c1ccc(CNC(=O)[C@@H]2C[C@@H](O)CN2C(=O)[C@@H](NC(=O)CCOCCCOc2ccc(Nc3ncc(C(F)(F)F)c(NCc4cccc(N(C)S(C)(=O)=O)c4)n3)cc2)C(C)(C)C)cc1 [Compound 103]', 'half-life', 2.44),
  ('Cc1ncsc1-c1ccc(CNC(=O)[C@@H]2C[C@@H](O)CN2C(=O)[C@@H](NC(=O)CCOCCOc2ccc(Nc3ncc(C(F)(F)F)c(NCc4cccc(N(C)S(C)(=O)=O)c4)n3)cc2)C(C)(C)C)cc1 [Compound 102]', 'half-life', 0.905);

[I] Cc1ncsc1-c1ccc(CNC(=O)[C@@H]2C[C@@H](O)CN2C(=O)[C@@H](NC(=O)COCCCOc2ccc(Nc3ncc(C(F)(F)F)c(NCc4cccc(N(C)S(C)(=O)=O)c4)n3)cc2)C(C)(C)C)cc1 [Compound 101]
[II] Cc1ncsc1-c1ccc(CNC(=O)[C@@H]2C[C@@H](O)CN2C(=O)[C@@H](NC(=O)COCCOc2ccc(Nc3ncc(C(F)(F)F)c(NCc4cccc(N(C)S(C)(=O)=O)c4)n3)cc2)C(C)(C)C)cc1 [Compound 100]
Endpoint returns whichever of I and II has the numerically higher half-life. State your choice using its label.
II
(II: 1.95 h, I: 1.26 h)

---

assay: Pharmacokinetics of intraperitoneal or intravenous injection in CD1 mice; format: in vivo; conditions: male, CD1, mouse, plasma, iv, 1 mg/kg, IV 1.0 mg/kg, CD1 mice plasma, 0.25 h; read-out: Conc. (ng/mL) Mouse 3
observationType: concentration at 0.25 h (ng/mL)

Below, 3 compounds whose answers are already recorded.
INSERT INTO measurements (compound, readoutunit, resultvalue) VALUES
  ('Cc1ncsc1-c1ccc(CNC(=O)[C@@H]2C[C@@H](O)CN2C(=O)[C@@H](NC(=O)COCCCOc2ccc(Nc3ncc(C(F)(F)F)c(NCc4cccc(N(C)S(C)(=O)=O)c4)n3)cc2)C(C)(C)C)cc1', 'ng/mL', 47),
  ('Cc1ncsc1-c1ccc(CNC(=O)[C@@H]2C[C@@H](O)CN2C(=O)[C@@H](NC(=O)CCOCCOc2ccc(Nc3ncc(C(F)(F)F)c(NCc4cccc(N(C)S(C)(=O)=O)c4)n3)cc2)C(C)(C)C)cc1', 'ng/mL', 71.8),
  ('CN(c1cccc(CNc2nc(Nc3ccc(OCCCOCCC(=O)NCCOc4cccc5c4C(=O)N(C4CCC(=O)NC4=O)C5=O)cc3)ncc2C(F)(F)F)c1)S(C)(=O)=O (centres unmarked)', 'ng/mL', 1.73);

[P] Cc1ncsc1-c1ccc(CNC(=O)[C@@H]2C[C@@H](O)CN2C(=O)[C@@H](NC(=O)COCCOc2ccc(Nc3ncc(C(F)(F)F)c(NCc4cccc(N(C)S(C)(=O)=O)c4)n3)cc2)C(C)(C)C)cc1
[Q] Cc1ncsc1-c1ccc(CNC(=O)[C@@H]2C[C@@H](O)CN2C(=O)[C@@H](NC(=O)CCOCCCOc2ccc(Nc3ncc(C(F)(F)F)c(NCc4cccc(N(C)S(C)(=O)=O)c4)n3)cc2)C(C)(C)C)cc1
Could you tell me which of these two has the smaller concentration at 0.25 h figure? First: P Second: Q Selection: enter the item's label.
P
(P: 36.4 ng/mL, Q: 395 ng/mL)

FYI, the data here is from patent US20200038513A1.
